experiment: Log P

compound: CC(NC(=O)NCCCl)c1ccccc1Cl (stereo not shown)
logP: 2.3
//
compound: C[C@H](/N=C1\OCCN1C(=S)NCC#N)c1ccccc1
logP: 3.07
//
compound: COCCNC(=S)N1CCO/C1=N\C(C)c1ccccc1Cl (stereo not shown)
logP: 4.08
//
compound: C[C@H](NC(=O)NCCCl)c1ccccc1
logP: 1.76
